Experiment: chemical genetic growth profiling, strain panel (AID 1159580);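 also: tested at 20 µM; growth read once vehicle control cultures reached saturation at 30 °C; 1 = growth at the plate median or of vehicle wells; lower values mean less growth of the strain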
Experimental Context: S. cerevisiae deletion strains, growth OD, locus YLL026W, stronger effect = lower value
Screen size: about 5,500 compounds; about 2,000 (36%) were called active. Another 18% or so got no clear call; they are omitted. This is one part of the list.
Exercise: for every item that follows, state its recorded normalized growth.
One number for each entry.

Example entries begin here.
Compound	Measured Quantity	Assay Value
NS(=O)(=O)c1cc(C2(O)NC(=O)c3ccccc32)ccc1Cl (stereo not drawn)	normalized growth	0.988
CCCCCCCCCCCC1=C(O)C(=O)C=C(O)C1=O	normalized growth	0.972

We next turn to a different compound, shown below.
Input: Requested read-out: normalized growth. Entry: CC1(C)C2CC(=O)[C@]3(C)C(CC[C@@]4(C)[C@H](c5ccoc5)OC(=O)[C@H]5O[C@]543)[C@@]2(C)C(=O)C[C@H]1O (stereo partly drawn)
Output: 1.01

----------
Experiment: chemical genetic growth profiling, strain panel (AID 1159580)
Experimental Context: S. cerevisiae deletion strains, growth OD, locus YLR342W, strain FKS1, stronger effect = lower value
Out of some 5,500 compounds screened, about 2,000 (36%) were called active. Another 18% or so got no clear call; they are omitted. The list shows a part of the results.
Measured Quantity: normalized growth

Each of the following entries comes with a recorded value; kindly state normalized growth for each.
1. CC(=O)Oc1ccc2c(c1C(C)C)CCC1C(C)(C)CCC[C@]21C (stereo partly drawn)
2. CCN[C@@H]1C[C@H](N)[C@@H](O[C@H]2OC(CN)=CC[C@H]2N)[C@H](O)[C@H]1OC1OC[C@](C)(O)[C@H](NC)[C@H]1O (stereo partly drawn)
3. C[C@]12CCC3c4ccc(O)cc4CCC3C1CC[C@@H]2O (stereo partly drawn)
4. CC(C)c1c(O)ccc2c1CCC1[C@@](C)(CO)CCC[C@]21C (stereo partly drawn)
5. COC(=O)[C@@]1(C)CCC[C@]2(C)c3ccc(O)c(C(C)C)c3CCC12 (stereo partly drawn)
6. CN[C@@H]1C(O)[C@@H](O[C@@H]2[C@@H](O)[C@H](O[C@H]3OC(CN)=CC[C@H]3N)[C@@H](N)C[C@H]2N)OC[C@]1(C)O (stereo partly drawn)
7. CC(C)c1c(O)ccc2c1CCC1[C@@](C)(C=O)CCC[C@]21C (stereo partly drawn)

Output:
1.02 (inactive)
0.997 (inactive)
1 (inactive)
1.01 (inactive)
0.596 (active)
1.02 (inactive)
0.774 (active)

Input: Fill blank: measured normalized growth of the compound CN[C@@H]1[C@@H](O)C(OC2[C@@H](N)C[C@@H](N)[C@H](O[C@H]3O[C@H](C(C)O)[C@@H](O)[C@H](O)[C@H]3N)[C@H]2O)OC[C@]1(C)O (stereo partly drawn) is ____.
Output: 0.972 (inactive)

----------
Provide the reported normalized growth of each item.
Experiment: chemical genetic growth profiling, strain panel (AID 1159580)
Experimental Context: S. cerevisiae deletion strains, growth OD, locus YER155C, strain BEM2, stronger effect = lower value
In all, about 5,500 compounds went through this assay and about 2,000 (36%) were called active. Another 18% or so got no clear call; they are omitted. This is one part of the list.

For orientation, consider the following solved cases.
Compound	normalized growth
C[C@@H]([C@H](O)c1ccccc1)N(C)C	1 (inactive)
C[C@]12CCC3c4ccc(OS(=O)(=O)O)cc4CCC3C1CC[C@H]2O (stereo not given in full)	0.994 (inactive)
Oc1ccc2c(c1)OCC1(O)Cc3cc(O)c(O)cc3C21 (stereo not given)	1.04 (inactive)

Each of the following entries comes with a recorded value; kindly state normalized growth for each.
1. CC(C)C1COc2cc3oc(=O)ccc3cc2O1 (stereo not given)
2. COc1ccccc1/C=C\C(=O)O
3. CCOC(=O)NC1=C(C2CC2)C(=O)C(NC(=O)OCC)=C(C2CC2)C1=O

Output:
0.592 (active)
1.01 (inactive)
0.994 (inactive)

----------
Experiment: chemical genetic growth profiling, strain panel (AID 1159580)
Experimental Context: S. cerevisiae deletion strains, growth OD, locus YDL185W, strain tfp1, stronger effect = lower value
In all, about 5,500 compounds went through this assay and about 2,000 (36%) were called active. Roughly 18% stayed inconclusive and do not appear here. This is one part of the list.
For each record, write down the corresponding normalized growth.
Give bare numbers.

Batch request: normalized growth for each of the following compounds.
1. CNC(=O)Oc1cccc2c1OC(C)(C)O2
2. COC(=O)C1OC(=O)C2OC23C1(C)CCC1C2(C)C(OC(C)=O)CC(OC(C)=O)C(C)(C)C2CC(=O)C13C (stereo unspecified)
3. C[C@@H]([C@H](O)c1ccccc1)N(C)C

Output:
[0.995, 0.962, 1.01]

----------
Experiment: chemical genetic growth profiling, strain panel (AID 1159580);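 also: tested at 20 µM; growth read once vehicle control cultures reached saturation at 30 °C; 1 = growth at the plate median or of vehicle wells; lower values mean less growth of the strain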
Experimental Context: S. cerevisiae deletion strains, growth OD, locus YLR058C, strain SHM2 (second series), stronger effect = lower value
The whole screen tested about 5,500 compounds, of which about 2,000 (36%) were called active. About 18% were inconclusive and are not listed. Some of the results follow.
Measured Quantity: normalized growth

Use the examples below as a reference point.
Compound	Assay Value
CN(C)C=Nc1nnc(SCc2ccc(C(=O)Oc3ccc(F)cc3F)cc2)s1	1.01 (inactive)
N#Cc1ccc(-c2csc(-c3ccc(Oc4ccc(C(F)(F)F)cn4)cc3)n2)cc1	1 (inactive)
C=C1SC(Nc2cccc(C(F)(F)F)c2)=NC12CCCCC2	0.987 (inactive)
Cn1c2c(c3c1CCCC3)CCCC2	1.02 (inactive)
CCOC(=O)c1sc(SC(C)C)c2c1CCCC2=O	0.974 (inactive)
Brc1ccc(-c2ccn[nH]2)s1	0.963 (inactive)
OC1(C(F)(F)F)CC(c2ccccc2)=NN1 (configuration not stated)	0.961 (inactive)
CC(C)CC1NC(=O)NC1=O (configuration not stated)	0.998 (inactive)
Cc1cc(Br)c(NC(=O)C(Cl)(Cl)Cl)c(Br)c1	0.907 (active)
Clc1ccc(C=C2c3ccccc3-c3ccccc32)cc1	0.972 (inactive)

I need normalized growth for every entry listed below, if you could help.
1. FC(F)(F)c1ccc(Cl)c(NC(=S)NN=C2CCCCCC2)c1
2. CSc1nsc(SC)c1C(=O)NC(=O)Nc1ccc(F)cc1F
3. ON=C(c1cccs1)c1cccs1
4. Cc1ccc(-c2csc(-c3ccc(Oc4ccc(C(F)(F)F)cn4)cc3)n2)c(C)c1
5. COc1cc(/C=C(\C#N)C(N)=S)cc(OC)c1OC
6. CCOC(=O)N/N=C\c1ccccc1OCC

Output:
0.99 (inactive)
1 (inactive)
0.959 (inactive)
1 (inactive)
1.01 (inactive)
0.995 (inactive)

----------
Experiment: chemical genetic growth profiling, strain panel (AID 1159580);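 also: tested at 20 µM; growth read once vehicle control cultures reached saturation at 30 °C; 1 = growth at the plate median or of vehicle wells; lower values mean less growth of the strain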
Experimental Context: S. cerevisiae deletion strains, growth OD, locus YDR150W, strain NUM1, stronger effect = lower value
The campaign covered roughly 5,500 compounds. About 2,000 (36%) were called active. Another 18% or so got no clear call; they are omitted. Some of the results follow.
Assignment: determine reported normalized growth for the given molecules.
Give bare numbers.

The cases that follow already have their normalized growth on record.
Molecule	Measured Quantity	Assay Value
CCC(N)C(O)c1ccc(O)c(O)c1 (stereo not given)	normalized growth	1.02
CCC(c1ccc(O)cc1)C(CC)c1ccc(O)cc1 (stereo not given)	normalized growth	1.01
COC(=O)c1c(C)cc(OC)cc1O	normalized growth	0.989
COc1ccc2c3c1OC1C(O)CC=C4C(C2)N(C)CCC431 (stereo not given)	normalized growth	1.02

Each molecule below has a recorded value; state its normalized growth.
1. CC(=O)OCC1=C(C(=O)O)N2C(=O)[C@@H](NC(=O)Cc3cccs3)[C@H]2SC1
2. CCCCCCCCCC(=O)NC(CN1CCOCC1)[C@H](O)c1ccccc1 (stereo not given in full)
3. COc1ccc(CCNc2ccc(C(F)(F)F)cc2N)cc1OC
4. CCC1OC(=O)[C@H](C)C(=O)[C@H](C)[C@@H](OC2O[C@H](C)C[C@H](N(C)C)[C@H]2O)[C@](C)(OC)C2(CCCn3cnc(-c4cccnc4)c3)C[C@@H](C)C(=O)[C@H](C)[C@H]3N(C2)C(=O)O[C@]13C (stereo not given in full)
5. CCC(=O)c1c(O)cc(O)cc1O
6. Cc1cc(OC(=O)c2c(C)cc(OC(=O)c3c(C)cc(O)cc3O)cc2O)cc(O)c1C(=O)O

Output:
1: 0.983; 2: 0.977; 3: 0.911; 4: 1.01; 5: 1; 6: 1.03

----------
Experiment: chemical genetic growth profiling, strain panel (AID 1159580);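 also: tested at 20 µM; growth read once vehicle control cultures reached saturation at 30 °C; 1 = growth at the plate median or of vehicle wells; lower values mean less growth of the strain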
Experimental Context: S. cerevisiae deletion strains, growth OD, locus YBL061C, strain skt5
The campaign covered roughly 5,500 compounds. About 2,000 (36%) were called active. Roughly 18% stayed inconclusive and do not appear here. Cut-off read from the data, not from the text of the source: active = normalized growth mostly below about 0.91 (no sharp cut-off); inconclusive = no clear call, values can overlap the other calls; inactive = mostly above about 0.92. The list shows a part of the results.
Returns: one label drawn from Y = active, N = inactive

Sample answers from the record:
Compound	Group
CC(=O)O[C@]1(C(C)=O)CCC2C3C=C(Cl)C4=CC(=O)[C@@H]5C[C@@H]5[C@]4(C)C3CC[C@@]21C (stereo partly drawn)	N
C=C(C)[C@H]1COc2cc3oc(=O)ccc3cc2O1	Y
CC1(C)C(=O)C=C[C@@]2(C)C1C=C[C@]1(C)C2CC[C@@]2(C)[C@H](c3ccoc3)OC(=O)C3OC321 (stereo partly drawn)	N
CC(=O)O[C@@H]1CC2C(C)(C)C(=O)C=C[C@]2(C)C2CC[C@@]3(C)[C@H](c4ccoc4)OC(=O)[C@H]4O[C@]43[C@@]21C (stereo partly drawn)	N
CC(C)c1c(O)ccc2c1CCC1C(C)(C)CCC[C@]21C (stereo partly drawn)	Y

Input: What was the test verdict on CC(C)c1c(O)c(-c2cc3c(c(C(C)C)c2O)CCC2C(C)(C)CCC[C@]32C)cc2c1CCC1C(C)(C)CCC[C@]21C (stereo partly drawn) ?
Output: N

Input: Same read-out for O=c1c(O)c(-c2ccc(O)c(O)c2)oc2c(O)c(O)cc(O)c12 ?
Output: N

Input: Same for CNC(=O)Oc1cccc2c1OC(C)(C)O2
Output: N

Input: Follow-up item: CC1(C)C(=O)C=C[C@@]2(C)C1C[C@@H](O)[C@]1(C)C2CC[C@@]2(C)[C@H](c3ccoc3)OC(=O)[C@H]3O[C@]321 (stereo partly drawn)
Output: N

Input: Then CC1(C)C=CC(=O)[C@@]2(C)C1CC(=O)[C@]1(C)C2CC[C@@]2(C)[C@H](c3ccoc3)OC(=O)C3OC321 (stereo partly drawn) ?
Output: N

Input: What do we get for CC1(C)C2CC(=O)[C@]3(C)C(CC[C@@]4(C)[C@H](c5ccoc5)OC(=O)[C@H]5O[C@]543)[C@@]2(C)C(=O)C[C@H]1O (stereo partly drawn) ?
Output: N
